Molecular target: T1, DGI-2 polypeptide (UniProt Q15004 1-111, limits assumed)
T1 construct: Soluble recombinant protein coated at 500 ng/well; vector tag of pIVEX2.3-MCS not described for this construct; also called KIAA0101
T1 sequence (looked up): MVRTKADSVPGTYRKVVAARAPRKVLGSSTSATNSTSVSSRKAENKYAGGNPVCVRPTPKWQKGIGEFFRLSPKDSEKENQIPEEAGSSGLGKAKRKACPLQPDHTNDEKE
Test: phage ELISA
outcome-measure: DGI-2 (OD)
// units = OD; emit number, no label

Guide cases for DGI-2 (OD), answers given:
- binder: "DGI-2-40F-4-F122 (peptide) peptide: RSQVRVVSRERSTPVLHRIECLLFSGWCVTSGSDEGVVWGAAAGAPVPYPDPLEPRP"
  outcome-measure: "DGI-2 (OD)"
  unit-string: "OD"
  reading: 4.7
- binder: "LGRTFVWGTCLHLSVSRFGHAAAGAPVPYPDPLEPRP [DGI-2-20F-PP-C3]"
  outcome-measure: "DGI-2 (OD)"
  unit-string: "OD"
  reading: 5.3
- binder: "DGKHLTKWSGRGWWSAWVGGAAAGAPVPYPDPLEPRP [DGI-2-20R-3-B12]"
  outcome-measure: "DGI-2 (OD)"
  unit-string: "OD"
  reading: 5.7

[ask] Suppose we examine the binder SIILAGCVWVMPCGQNLGGVAAAGAPVPYPDPLEPRP [DGI-2-20F-PP-C4] ; what DGI-2 (OD) value has been reported?
[reply] 3

[ask] What measured DGI-2 (OD) goes with SSVWATWGSDLRTFGSVGFLAAAGAPVPYPDPLEPRP [DGI-2-20F-PP-C7] ?
[reply] 3

[ask] Consider the binder shown here: MSSTAWTDRILQRGIGLGPVAAAGAPVPYPDPLEPRP [DGI-2-20R-4-F1212] What is its recorded DGI-2 (OD)?
[reply] 4

[ask] I'd like to know its DGI-2 (OD). The binder in question is SRELGKWGRLWQDWSSGNFSAAAGAPVPYPDPLEPRP [DGI-2-20R-3-C11]
[reply] 8.6

[ask] Suppose we examine the binder WAASCFWGHVALGCGRNGQGAAAGAPVPYPDPLEPRP [DGI-2-20R-3-A11] ; what DGI-2 (OD) value has been reported?
[reply] 6.2

[ask] Request the reported DGI-2 (OD) associated with SVSGGGVFGTGGRVRHQVSGAAAGAPVPYPDPLEPRP [DGI-2-20F-PP-C5]
[reply] 2.2
